# testSystem: Serotonin 3 (5-HT3) receptor (Rattus norvegicus) (UniProt P35563+Q9JJ16)
# testSummary: 5-hydroxytryptamine 3 receptor antagonistic activity was measured by the inhibition of 5H+ T-induced bradycardia after iv administration of 3 ug/kg dose in urethane-anesthetized rats
# Assay type: functional, organism-based
recordedEndpoint: inhibition (%)
# unit: % | format: bare number

// recorded inhibition for CN1[C@@H]2CC[C@H]1C[C@@H](OC(=O)c1c[nH]c3ccccc13)C2 : 54.2

Documented inhibition of CC1Cc2cc(Cl)cc(C(=O)OC3CC4CCC(C3)N4C)c2O1 (stereo not given) : 50.8

So, CC1Oc2c(C(=O)OC3CC4CCC(C3)N4C)cccc2C1C (stereo in doubt; 26) ? Its inhibition was 1.8

Documented inhibition of CN1C2CCC1CC(OC(=O)c1cccc3c1OC(C)(C)C3)C2 (stereo not given) : 20.8

// CC1Cc2cc(Cl)cc(C(=O)NC3CC4CCC(C3)N4C)c2O1 (stereo not given) : inhibition value = 79.8

###

# testSystem: Serotonin 3 (5-HT3) receptor (Rattus norvegicus) (UniProt P35563+Q9JJ16)
# testSummary: 5-hydroxytryptamine 3 receptor antagonistic activity measured by inhibition of 5-HT-induced bradycardia (iv administration 10 ug/kg dose in urethane-anesthetized rats)
# Assay type: functional, organism-based
recordedEndpoint: inhibition (%)
Numeric only. Scale: %

Record CC1Oc2c(C(=O)OC3CC4CCC(C3)N4C)cccc2C1C (stereo in doubt; 27) / Serotonin 3 (5-HT3) receptor (Rattus norvegicus) (UniProt P35563+Q9JJ16), inhibition recorded as 32.7

Field inhibition (system: Serotonin 3 (5-HT3) receptor (Rattus norvegicus) (UniProt P35563+Q9JJ16)) for entry CN1C2CCC1CC(NC(=O)c1cc(F)cc3c1OC(C)(C)C3)C2 (stereo not given) = 71.7

Tested on Serotonin 3 (5-HT3) receptor (Rattus norvegicus) (UniProt P35563+Q9JJ16): COc1cc2c(c(C(=O)NC3CC4CCC(C3)N4C)c1)OC(C)(C)C2 (stereo not given) . Observed inhibition: 2.9

Measured inhibition (Serotonin 3 (5-HT3) receptor (Rattus norvegicus) (UniProt P35563+Q9JJ16)), entry Cc1cc2c(c(C(=O)OC3CC4CCC(C3)N4C)c1)OC(C)C2 (stereo not given) : 66.7

Result for CN1[C@@H]2CC[C@H]1C[C@@H](NC(=O)c1cc(Cl)cc3c1OC(C)(C)C3)C2 (stereo in doubt; 50) , tested on Serotonin 3 (5-HT3) receptor (Rattus norvegicus) (UniProt P35563+Q9JJ16), inhibition: 67.1

Entry CN1C2CCC1CC(NC(=O)c1c(Cl)ccc3c1OC(C)(C)C3)C2 (stereo not given) under Serotonin 3 (5-HT3) receptor (Rattus norvegicus) (UniProt P35563+Q9JJ16) had inhibition of 0.8

Field inhibition (system: Serotonin 3 (5-HT3) receptor (Rattus norvegicus) (UniProt P35563+Q9JJ16)) for entry CN1C2CCC1CC(NC(=O)c1cc(Br)cc3c1OC(C)(C)C3)C2 (stereo not given) = 68.7

Given the molecule CN1[C@@H]2CC[C@H]1C[C@@H](OC(=O)c1cc(Cl)cc3c1OC(C)(C)C3)C2 and test system Serotonin 3 (5-HT3) receptor (Rattus norvegicus) (UniProt P35563+Q9JJ16), the measured inhibition is 82.7

Result for CC1Cc2cc(F)cc(C(=O)OC3CC4CCC(C3)N4C)c2O1 (stereo not given) , tested on Serotonin 3 (5-HT3) receptor (Rattus norvegicus) (UniProt P35563+Q9JJ16), inhibition: 32.2

Bench note, Serotonin 3 (5-HT3) receptor (Rattus norvegicus) (UniProt P35563+Q9JJ16): Cc1coc2c(C(=O)OC3CC4CCC(C3)N4C)cccc12 (stereo not given) , inhibition reads 7.7

###

# testSystem: Serotonin 3 (5-HT3) receptor (Rattus norvegicus) (UniProt P35563+Q9JJ16)
# testSummary: 5-hydroxytryptamine 3 receptor antagonistic activity was measured by the inhibition of 5H+ T-induced bradycardia after iv administration of 1000 ug/kg dose in urethane-anesthetized rats
# Assay type: functional, organism-based
For each of the compounds below, state its inhibition.
Please respond with the number in % and leave the unit unwritten.

The reported value for CN1[C@@H]2CC[C@H]1C[C@H](OC(=O)c1ccccc1)C2 in terms of inhibition is 88.1

For this compound ( CN1C2CCC1CC(OC(=O)c1cccc3c1Cc1ccccc1-3)C2 (centres undefined) ), measured inhibition is 51

According to the records, this compound CN1C2CCC1CC(OC(=O)c1ccc3c(c1)oc1ccccc13)C2 (centres undefined) displays inhibition of 1.5

Sure, the documented inhibition for CN1C2CCC1CC(OC(=O)c1ccccc1Oc1ccccc1)C2 (centres undefined) is 54.5

###

# testSystem: Serotonin 3 (5-HT3) receptor (Rattus norvegicus) (UniProt P35563+Q9JJ16)
# testSummary: 5-hydroxytryptamine 3 receptor antagonistic activity measured by inhibition of 5-HT-induced bradycardia (iv administration 10 ug/kg dose in urethane-anesthetized rats)
# Format: functional, organism-based
recordedEndpoint: inhibition (%)
Return type: number; implicit unit %.

inhibition recorded for this compound, CN1C2CCC1CC(NC(=O)c1ccc3c(c1)CC(C)(C)O3)C2 (stereo not given) , is 16.7

Value of inhibition reported for the compound Cc1cc2cccc(C(=O)OC3CC4CCC(C3)N4C)c2o1 (stereo not given) is 7.3

inhibition recorded for this compound, CN1C2CCC1CC(NC(=O)c1cccc3c1CC(C)(C)O3)C2 (stereo not given) , is 2.1

Query CC1Cc2cc(Cl)cc(C(=O)OC3CC4CCC(C3)N4C)c2O1 (stereo not given) yields inhibition of 69

The compound listed as CN1[C@@H]2CC[C@H]1C[C@@H](OC(=O)c1cc(Cl)cc(Cl)c1)C2 has a reported inhibition of 9.7

Lookup result for CC1Cc2cc(Cl)cc(C(=O)NC3CC4CCC(C3)N4C)c2O1 (stereo not given) ; measured inhibition: 80

Reported inhibition for CN1C2CCC1CC(NC(=O)c1cccc3c1OC(C)(C)C3)C2 (stereo not given) was 47.5

// COc1cc2c(c(C(=O)OC3CC4CCC(C3)N4C)c1)OC(C)C2 (stereo not given) : inhibition value = 4.1

Documented inhibition of CN1C2CCC1CC(OC(=O)c1cccc3c1OC(C)(C)C3)C2 (stereo not given) : 38

Lab note: Cc1cc2c(c(C(=O)OC3CC4CCC(C3)N4C)c1)OCC2 (stereo not given) gave inhibition of 28.8

For reference, reported inhibition for Cc1cc2c(c(C(=O)NC3CC4CCC(C3)N4C)c1)OC(C)(C)C2 (stereo not given) stands at 87.1

So, CN1C2CCC1CC(OC(=O)c1cccc3oc4ccccc4c13)C2 (stereo not given) ? Its inhibition was 0

inhibition recorded for this compound, CC1Cc2cccc(C(=O)OC3CC4CCC(C3)N4C)c2O1 (stereo not given) , is 30.6

Lab note: measured inhibition of CN1C2CCC1CC(NC(=O)c1ccc(Cl)c3c1OC(C)(C)C3)C2 (stereo not given) was 1.9

Reported inhibition for CN1C2CCC1CC(NC(=O)c1cc(O)cc3c1OC(C)(C)C3)C2 (stereo not given) was 54.7

Noted for CN1C2CCC1CC(NC(=O)c1ccc3c(c1)OC(C)(C)C3)C2 (stereo not given) : its inhibition reads 0

// field: inhibition; key: CC1Oc2c(C(=O)OC3CC4CCC(C3)N4C)cccc2C1C (stereo in doubt; 26) ; value = 29.9

Reported inhibition for COc1cc2c(c(C(=O)NC3CC4CCC(C3)N4C)c1)OC(C)C2 (stereo not given) was 28.9

Just so you know, measured inhibition for CN1C2CCC1CC(OC(=O)c1cccc3c1OCC3)C2 (stereo not given) came out at 27

In plain terms, CC1Cc2cccc(C(=O)NC3CC4CCC(C3)N4C)c2O1 (stereo not given) has a documented inhibition of 22.3

###

# testSystem: Serotonin 3 (5-HT3) receptor (Rattus norvegicus) (UniProt P35563+Q9JJ16)
# testSummary: 5-hydroxytryptamine 3 receptor antagonistic activity was measured by the inhibition of 5H+ T-induced bradycardia after iv administration of 3 ug/kg dose in urethane-anesthetized rats
# Assay type: functional, organism-based
recordedEndpoint: inhibition (%)
Write down the numeric answer in % and omit the unit.

Entry CN1[C@@H]2CC[C@H]1C[C@@H](NC(=O)c1cc(Cl)cc3c1OC(C)(C)C3)C2 (stereo in doubt; 50) , tested on Serotonin 3 (5-HT3) receptor (Rattus norvegicus) (UniProt P35563+Q9JJ16), has a reported inhibition of 25.9

Field inhibition (Serotonin 3 (5-HT3) receptor (Rattus norvegicus) (UniProt P35563+Q9JJ16)), entry CN1[C@@H]2CC[C@H]1C[C@@H](NC(=O)c1cc(Cl)cc3c1OC(C)(C)C3)C2 (stereo in doubt) : 84.4

Result for Cc1cc2c(c(C(=O)OC3CC4CCC(C3)N4C)c1)OC(C)C2 (centres undefined) , tested on Serotonin 3 (5-HT3) receptor (Rattus norvegicus) (UniProt P35563+Q9JJ16), inhibition: 14.4

The measured inhibition that CN1[C@@H]2CC[C@H]1C[C@@H](OC(=O)c1cc(Cl)cc3c1OC(C)(C)C3)C2 showed for Serotonin 3 (5-HT3) receptor (Rattus norvegicus) (UniProt P35563+Q9JJ16) is 19.3
